Kindly supply the reported Foxtail, Giant plant response rating values for the records listed here.
# Test system: foxtail, giant (giant foxtail, Setaria faberii)
# METHOD: Test A postemergence, visual plant response rating
# Format: in vivo
# MEASUREMENT_CONDITIONS: Postemergence, 125 g ai/ha; 0 to 100 scale (0 no effect, 100 complete control)
Please respond with just the number, no unit label.

Read the entry CO/N=C(/c1ccccc1C(C)C)c1c(O)c(C)nn(C)c1=O and write its reported Foxtail, Giant plant response rating.
30

Read the entry CO/N=C(/c1cccc(F)c1)c1c(O)c(C)nn(C)c1=O and write its reported Foxtail, Giant plant response rating.
10

Read the entry CON=C(c1cccc(Cl)c1)c1c(O)c(C)nn(CC2CC2)c1=O (mixture of isomers) and write its reported Foxtail, Giant plant response rating.
0

Read the entry CON=C(c1c(O)c(C)nn(C)c1=O)c1ccc(Cl)c2ccccc12 and write its reported Foxtail, Giant plant response rating.
10

Read the entry CON=C(c1c(O)c(C)nn(C)c1=O)c1cccc2ccoc12 and write its reported Foxtail, Giant plant response rating.
0

Read the entry CON=C(c1c(O)c(C)nn(C)c1=O)c1cccc2ccc(Cl)cc12 [Compound 111] and write its reported Foxtail, Giant plant response rating.
60

Read the entry C=CCO/N=C(\c1c(O)c(C)nn(C)c1=O)c1ccc(F)c2ccccc12 and write its reported Foxtail, Giant plant response rating.
70

Read the entry CON=C(c1c(O)c(C)nn(C)c1=O)c1cccc2cc(F)ccc12 and write its reported Foxtail, Giant plant response rating.
70

Read the entry CON=C(c1cc(C(F)(F)F)ccc1Cl)c1c(O)c(C)nn(C)c1=O and write its reported Foxtail, Giant plant response rating.
30

Read the entry CCO/N=C(/c1c(O)c(C)nn(C)c1=O)c1ccc(F)c2ccccc12 and write its reported Foxtail, Giant plant response rating.
70

Read the entry CO/N=C(\c1c(O)c(Cl)nn(C)c1=O)c1cccc2ccccc12 and write its reported Foxtail, Giant plant response rating.
40

Read the entry Cc1nn(C)c(=O)c(/C(=N\OC(C)C)c2ccc(F)c3ccccc23)c1O and write its reported Foxtail, Giant plant response rating.
70

Read the entry CO/N=C(\c1cccc(C#N)c1)c1c(O)c(C)nn(C)c1=O and write its reported Foxtail, Giant plant response rating.
0

Read the entry CO/N=C(\c1ccccc1C#N)c1c(O)c(C)nn(C)c1=O and write its reported Foxtail, Giant plant response rating.
0

Read the entry C#CCON=C(c1c(O)c(C)nn(C)c1=O)c1cc(Br)cc2ccccc12 and write its reported Foxtail, Giant plant response rating.
90

Read the entry C=CCON=C(c1c(O)c(C)nn(C)c1=O)c1cc(Br)cc2ccccc12 and write its reported Foxtail, Giant plant response rating.
90

Read the entry CO/N=C(\c1ccc(C)o1)c1c(O)c(C)nn(C)c1=O and write its reported Foxtail, Giant plant response rating.
10

Read the entry CON=C(c1c(O)c(C)nn(C)c1=O)c1cccc2ccc(Cl)cc12 [Compound 110] and write its reported Foxtail, Giant plant response rating.
50

====

Kindly supply the reported Plant response rating, Rice (Flood) values for the records listed here.
# Test system: rice (Oryza sativa)
# METHOD: Test D flooded paddy test, visual plant response rating
# Assay type: in vivo
# MEASUREMENT_CONDITIONS: 250 g ai/ha, scale 0 to 100 (0 no effect, 100 complete control), 13 to 15 d
Please respond with just the number, no unit label.

Read the entry CO/N=C(/c1cc(Cl)cc(OC)c1)c1c(O)c(C)nn(C)c1=O and write its reported Plant response rating, Rice (Flood).
0

Read the entry CO/N=C(/c1c(O)c(C)nn(C)c1=O)c1cccc2cc(Cl)ccc12 and write its reported Plant response rating, Rice (Flood).
0

Read the entry CCO/N=C(/c1c(O)c(Cl)nn(C)c1=O)c1cc(Br)cc2ccccc12 and write its reported Plant response rating, Rice (Flood).
0
